Biological target: Regulator of G-protein signaling 16 (Homo sapiens) + Guanine nucleotide-binding protein G(o) subunit alpha (Homo sapiens) (UniProt O15492+P09471)
Sequence (O15492 whole entry, looked up): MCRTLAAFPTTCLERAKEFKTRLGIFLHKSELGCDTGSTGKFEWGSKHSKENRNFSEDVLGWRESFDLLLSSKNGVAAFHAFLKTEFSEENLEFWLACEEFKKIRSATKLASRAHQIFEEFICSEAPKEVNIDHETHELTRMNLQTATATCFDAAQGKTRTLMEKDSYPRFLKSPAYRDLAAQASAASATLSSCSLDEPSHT
Sequence (P09471 whole entry, looked up): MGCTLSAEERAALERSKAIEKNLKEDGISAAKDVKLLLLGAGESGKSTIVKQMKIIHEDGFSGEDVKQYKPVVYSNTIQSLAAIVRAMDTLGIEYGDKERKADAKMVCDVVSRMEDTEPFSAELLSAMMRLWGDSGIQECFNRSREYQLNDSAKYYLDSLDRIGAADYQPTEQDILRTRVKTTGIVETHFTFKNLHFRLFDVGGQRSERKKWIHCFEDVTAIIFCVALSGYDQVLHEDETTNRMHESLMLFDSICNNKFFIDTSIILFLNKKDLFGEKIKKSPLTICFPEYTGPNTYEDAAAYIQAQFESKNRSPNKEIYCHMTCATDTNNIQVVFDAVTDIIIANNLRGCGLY
Experiment: RGS16 and Galphao interaction regulators – biochemical, single concentration, multiplexed bead flow cytometry, confirmation (AID 1838);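 note: Galphao activated as the GDP aluminium fluoride complex binding bead-coupled RGS16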
Details: bead-based flow cytometry, at 10 µM, actives lie on both sides
Some of the results follow. Calls of active or inactive are those of the source. Cut-off read from the data, not from the text of the source: active = response below about 74% or above about 130%; inactive = in between.
Field 'call' accepts yes for active, no for inactive

Recorded test call requested for O=C(OCC1O[C@@H](OC(=O)c2cc(O)c(O)c(O)c2)[C@@H](OC(=O)c2cc(O)c(O)c(O)c2)[C@@H](OC(=O)c2cc(O)c(O)c(O)c2)[C@@H]1OC(=O)c1cc(O)c(O)c(O)c1)c1cc(O)c(O)c(O)c1 (some centres not stated)
yes

Okay, and O=C(CSc1ccc2nnc(-c3ccccc3)n2n1)N1CCCc2ccccc21 ?
no

Okay, and CCCn1c(C)cc(C(=O)COC(=O)c2c(C)nn(-c3ccccc3)c2C)c1C ?
no

Okay, and COCCNC(=S)N/N=C/c1c(C)[nH]c2ccccc12 ?
yes

Okay, and N#Cc1nc(COc2ccc(-c3ccccc3)cc2)oc1NCc1cccnc1 ?
yes

Okay, and CN(C)S(=O)(=O)Oc1ccccc1C(=O)Nc1ccccc1Cl ?
no

Okay, and O=C(NCc1ccc(F)cc1)C1CCC(CNc2c(N3CCOCC3)c(=O)c2=O)CC1 (configuration not stated) ?
no

Okay, and COc1ccc(-n2c(SCC(=O)OC(C)C)nnc2-c2ccccn2)cc1 ?
no

Okay, and O=C(Nc1cccc(F)c1)c1coc(=O)c(Br)c1 ?
no

Okay, and CCOC(=O)c1oc2c(CN3CCN(C)CC3)c(O)ccc2c(=O)c1-c1ccc(Br)cc1 ?
no

Okay, and FC(F)Oc1ccccc1C1CC(c2ccc(Br)s2)Nc2ncnn21 (configuration not stated) ?
no

Okay, and COc1cc(C(=O)Nc2cc(C(F)(F)F)ccc2N2CCOCC2)ccc1O ?
no

Okay, and Cc1cc(C)n(CC(O)CN(c2ccccc2)S(=O)(=O)c2ccc3ccccc3c2)n1 (configuration not stated) ?
no

Okay, and CC(C)(C)NC(=O)c1cccc(NC(=O)Cc2ccc(Br)cc2)c1 ?
no

Okay, and C=CCNc1nc(N)c(C(=C(C#N)C#N)c2ccccc2)s1 ?
no

Okay, and CCCC1C(c2ccccc2)C(C#N)(C#N)C2(C#N)CC1(N)NC2=O (configuration not stated) ?
no

Okay, and Oc1ccc(N=Nc2nccs2)c(O)c1 ?
no

Okay, and NC(=O)CSc1c[nH]c2ccccc12 ?
no

Okay, and NC(=O)Cc1ccc2sc(-c3ccccc3)nc2c1 ?
no

Okay, and O=c1[nH]c2ccccc2s1 ?
no

Okay, and CCOC(=O)NNc1cc(C(F)(F)F)ccn1 ?
no

Okay, and COc1ccccc1-n1c(-c2cc(-c3ccco3)[nH]n2)n[nH]c1=S ?
no

* * *

Molecular target: AP-2 complex subunit beta (Homo sapiens)
Assay: beta-arrestin/AP2 interaction blockers – biochemical, validation set, GST-AP2 beads, flow cytometry, pilot screen (AID 504541);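 note: AP2 carries R879A mutation and is captured from E. coli lysate; bead-bound FITC arrestin peptide fluorescence measuring arrestin peptide binding to AP2; 0% = DMSO wells and 100% = excess unlabeled arrestin peptide control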
Conditions: FITC arrestin peptide, at 10 µM, stronger effect = higher value, AP2 beta2 appendage fragment, R879A mutant
readout-kind: inhibition (%)
Give just the number in %; leave the unit off.

For the compound shown here, CCOC(=O)C1C(=O)OC2(CCOC(C)(C)C2)C1C(=O)OCC (stereo unspecified) , give the reported inhibition.
-2.89

Okay, and Cc1ccc2c(c1)C1OCCC1C1N2C(=O)C2C(C(=O)O)C3C=CC21O3 (stereo unspecified) ?
41.7

Okay, and CCCCC(=O)O[C@H]1CC[C@H]2[C@@H]3CCc4cc(O)ccc4[C@H]3CC[C@]12C ?
30.7

Okay, and CCOc1ccc(OCCSc2nc3ccccc3[nH]2)cc1 ?
-5.21

Okay, and CC(=O)[C@@]1(O)CC[C@H]2[C@@H]3C[C@H](C)C4=CC(=O)C=C[C@]4(C)[C@@]3(F)[C@@H](O)C[C@@]21C ?
32.1

Okay, and O=C(NCCc1c[nH]c2ccccc12)c1cccnc1 ?
17.6

Okay, and COCCN(CCOC)Cc1c(C)[nH]c2c(C)c(C)ccc2c1=O ?
-8.42

Okay, and COc1ccc(CC(=O)NCC2(c3ccc(OC)c(OC)c3)CCOCC2)cc1 ?
-7.91

Okay, and COc1ccc(CNCCC(c2ccc(F)cc2)c2ccc(OC(C)C)cc2)cc1OC (stereo unspecified) ?
38.1

Okay, and COc1cc2c(cc1OC)C(C)=NC1(CCCCC1)C2 ?
20.9

Okay, and CCN1CCN(C(=S)c2ccc(OC)cc2)CC1 ?
-10.4
